Where do these numbers come from? They come from paper PMC10757926.

For each entry below, report its koff value.
target: biotinylated recombinant hSIRPα (extracellular portion) (human, UniProt P78324 31-373, biotin (Sulfo-NHS-LC-LC-Biotin)); test: BLI
Sequence (P78324 31-373): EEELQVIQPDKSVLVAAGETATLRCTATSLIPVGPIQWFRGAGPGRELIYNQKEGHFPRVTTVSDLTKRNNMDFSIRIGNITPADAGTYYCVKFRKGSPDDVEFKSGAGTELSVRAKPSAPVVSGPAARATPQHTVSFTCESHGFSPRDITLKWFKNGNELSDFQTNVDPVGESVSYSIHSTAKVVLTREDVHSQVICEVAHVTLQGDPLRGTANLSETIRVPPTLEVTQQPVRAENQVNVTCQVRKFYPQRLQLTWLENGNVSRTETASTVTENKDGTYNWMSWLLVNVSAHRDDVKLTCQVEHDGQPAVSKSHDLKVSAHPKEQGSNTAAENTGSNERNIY
Output spec: scalar in s⁻¹, unitless text.

Complete the entry with koff for hSIRPα Nb S43 (VHH) VHH: HVQLVESGGGLVQPGGSARLSCAASGFDLDYFAIGWFRQAPGKEREGVSCISTRSETTNYVDSVKGRFTISRDNAISTVYLQMNNLKPEDTAVYYCAADWADWTMTGCQMTWDDYNYWGQGAQVTVSS
0.131

Look up and report measured koff for this entry: hSIRPα Nb S45 (VHH) VHH: HVQLVESGGGLVQPGGSLRLSCAARGFSFRDSAMSWARQAPGKGLEWVGAIYSDGSTVYEKSVKGRFTISRDNAKNTMYLQMHSLKPEDSARYYCAPKGVVADEGDYSGQGTLVTVSS
0.00164

Item hSIRPα Nb S44 (VHH) VHH: QVQLQESGGGLVQPGGSLRLACAASGFTFSSYDMSWVRQAPGKGLEWVSDIKSGGGRTYYADSVKGRFTISRDNAKNTVYLQMNSLKPEDTAVYYCGSLDNSGAYTGGGQGSQVTVSS : provide koff
0.00915

Supply measured koff of hSIRPα-S36 Nb (VHH) VHH: EVQLVESGGGLVQPGGSLRLSCAASGFTLDYYAIGWFRQVPGKEREGVSCISSDGGGNTYYADSVKGRFTISRDNAKNTVYLQMNSLKPEDSAVYSCAAGPTYYSGSYCRDPHSDYDYWGQGTQVTVSS in your reply.
0.0002
